Overview of reported FGFR1/FGFR3 across a group of molecules:
# Test system: FGFR3 enzyme
# protocol.description: FGFR Enzymatic Assay (FRET peptide phosphorylation), FGFR3
# Assay type: biochemical
# experimental.conditions: IC50 ratio showing FGFR3 selectivity; Table 2A, pre-incubated for 4 hours

smiles.data	system.under.test	FGFR1/FGFR3
COc1cc(CN2C(=O)N(c3c(F)c(OC)cc(OC)c3F)Cc3cnc(-c4cn(C)nc4C)cc32)ccn1	FGFR3 enzyme	>10
CCCN1C(=O)N(c2c(F)c(OC)cc(OC)c2F)Cc2cnc(-c3cn(C)nc3C)cc21	FGFR3 enzyme	>1
CCc1cc(CN2C(=O)N(c3c(F)c(OC)cc(OC)c3F)Cc3cnc(-c4cn(C)nc4C)cc32)no1	FGFR3 enzyme	>10
CCN1C(=O)N(c2c(F)c(OC)cc(OC)c2F)Cc2cnc(-c3ccc(N4CCOCC4)nc3)cc21	FGFR3 enzyme	>5
CCN1C(=O)N(c2c(F)c(OC)cc(OC)c2F)Cc2cnc(-c3ccc(C(=O)NC(C)C)nc3)cc21	FGFR3 enzyme	>5
CCN1C(=O)N(c2c(F)c(OC)cc(OC)c2F)Cc2cnc(-c3ccc(C(=O)NC4CC4)nc3)cc21	FGFR3 enzyme	>10
COc1cc(OC)c(F)c(N2Cc3cnc(-c4cncc(-n5ccnc5)c4)cc3C3(CC3)C2=O)c1F	FGFR3 enzyme	>3

====

The reader will find reported FGFR4/FGFR3 values listed item by item below.
# Test system: FGFR3 enzyme
# protocol.description: FGFR Enzymatic Assay (FRET peptide phosphorylation), FGFR3
# Type: biochemical
# experimental.conditions: IC50 ratio showing FGFR3 selectivity; Table 2A, pre-incubated for 4 hours

compound	FGFR4/FGFR3
COc1cc(OC)c(F)c(N2Cc3cnc(-c4cn(C)nc4C)cc3N(c3cnn(C4CC4)c3)C2=O)c1F	>5
COc1cc(OC)c(F)c(N2Cc3cnc(-c4cn(C5CCN(C)C5)nc4C)cc3C3(CC3)C2=O)c1F (stereo not shown)	>3
COc1cc(OC)c(F)c(N2Cc3cnc(-c4cn(C)nc4C)cc3N(c3ccc4cn[nH]c4c3)C2=O)c1F	>5
COc1cc(OC)c(F)c(N2Cc3cnc(-c4cn(CCN(C)C)nc4C)cc3C3(CC3)C2=O)c1F	>3
COc1cc(OC)c(F)c(N2Cc3cnc(-c4cn(C)nc4C)cc3N(c3cncc(C)n3)C2=O)c1F	>10
COc1cc(OC)c(F)c(N2Cc3cnc(-c4cn(C)nc4C)cc3N(c3ccc(CC#N)cc3)C2=O)c1F	>10
COC(=O)N1CCC(N2C(=O)N(c3c(F)c(OC)cc(OC)c3F)Cc3cnc(-c4cn(C)nc4C)cc32)CC1	>5

====

# Test system: FGFR3 enzyme
# protocol.description: FGFR Enzymatic Assay (FRET peptide phosphorylation), FGFR3
# Assay type: biochemical
# experimental.conditions: IC50 ratio showing FGFR3 selectivity; Table 2A, pre-incubated for 4 hours
measured.property: FGFR4/FGFR3

compound	result
COc1cc(OC)c(F)c(N2Cc3cnc(-c4cn(C)nc4C)cc3N(c3cccnc3)C2=O)c1F [Example 86]	>10
COc1cc(OC)c(F)c(N2Cc3cnc(-c4cn(C)nc4C)cc3N(C3CCOC3)C2=O)c1F (stereo not shown) [Example 33]	>5
CCN1C(=O)N(c2c(F)c(OC)cc(OC)c2F)Cc2cnc(-c3cn(CCN4CCOCC4)nc3C)cc21 [Example 49]	>1
COc1cc(OC)c(F)c(N2Cc3cnc(-c4cn(C)nc4C)cc3N(c3ccncn3)C2=O)c1F [Example 45]	>10
COc1cc(OC)c(F)c(N2Cc3cnc(-c4cn(C)nc4C)cc3N(c3cccc(F)c3)C2=O)c1F [Example 99]	>5
COc1cc(OC)c(F)c(N2Cc3cnc(-c4cn(C)nc4C)cc3N(Cc3ccnc(C)c3)C2=O)c1F [Example 68]	>5
COc1cc(OC)c(F)c(N2Cc3cnc(-c4cn(C)nc4C)cc3N(C[C@H]3CCOC3)C2=O)c1F [Example 108]	>3

====

molecules and their reported FGFR1/FGFR3
# Tested on: FGFR3 enzyme
# protocol.description: FGFR Enzymatic Assay (FRET peptide phosphorylation), FGFR3
# Assay type: biochemical
# experimental.conditions: IC50 ratio showing FGFR3 selectivity; Table 2A, pre-incubated for 4 hours

smiles.data	FGFR1/FGFR3
COc1cc(OC)c(F)c(N2Cc3cnc(-c4cn(C)nc4C)cc3N(c3ccc(C(=O)N(C)C)cc3)C2=O)c1F	>3
COc1cc(OC)c(F)c(N2Cc3cnc(-c4cn(C)nc4C)cc3N(c3ccc(CC#N)cc3)C2=O)c1F	>5
COc1cc(OC)c(F)c(N2Cc3cnc(-c4cn(C)nc4C)cc3N(c3cncnc3)C2=O)c1F	>10
CNS(=O)(=O)c1cccc(N2C(=O)N(c3c(F)c(OC)cc(OC)c3F)Cc3cnc(-c4cn(C)nc4C)cc32)c1	>3
COc1cc(OC)c(F)c(N2Cc3cnc(-c4cn(C)nc4C)cc3N(C[C@H]3CCOC3)C2=O)c1F	>3
COc1cc(OC)c(F)c(N2Cc3cnc(-c4cncc(Cl)c4)cc3C3(CC3)C2=O)c1F	>1
COc1cc(OC)c(F)c(N2Cc3cnc(-c4cn(CCN5CCOCC5)nc4C)cc3C3(CC3)C2=O)c1F	>10
COc1cc(OC)c(F)c(N2Cc3cnc(-c4cn(C)nc4C)cc3N(c3ccc(S(C)(=O)=O)cc3)C2=O)c1F	>5
COc1cc(OC)c(F)c(N2Cc3cnc(-c4cn(C)nc4C)cc3N(Cc3ccncn3)C2=O)c1F	>5
COc1cc(OC)c(F)c(N2Cc3cnc(-c4cnn(CCC5CCN(S(C)(=O)=O)CC5)c4)cc3C3(CC3)C2=O)c1F	>10
COc1cc(OC)c(F)c(N2Cc3cnc(-c4cn(CCC#N)nc4C)cc3C3(CC3)C2=O)c1F	>5
COc1cc(OC)c(F)c(N2Cc3cnc(-c4cn(C)nc4C)cc3N(c3ccc4cn[nH]c4c3)C2=O)c1F	>3
COc1cc(OC)c(F)c(N2Cc3cnc(-c4cn(C)nc4C)cc3N(c3ncccn3)C2=O)c1F	>3
COc1cc(OC)c(F)c(N2Cc3cnc(-c4cn(C)nc4C)cc3N(c3ccc(F)c(C#N)c3)C2=O)c1F	>5
COc1cc(OC)c(F)c(N2Cc3cnc(-c4cn(C)nc4C)cc3N(C3CCN(S(C)(=O)=O)CC3)C2=O)c1F	>5

====

Each entry below carries its recorded FGFR4/FGFR3.
# Test system: FGFR3 enzyme
# protocol.description: FGFR Enzymatic Assay (FRET peptide phosphorylation), FGFR3
# Type: biochemical
# experimental.conditions: IC50 ratio showing FGFR3 selectivity; Table 2A, pre-incubated for 4 hours
measured.property: FGFR4/FGFR3

compound	system.under.test	measured.property	result
COc1cc(OC)c(F)c(N2Cc3cnc(-c4cn(C)nc4C)cc3N(Cc3ccc4c(c3)OCCO4)C2=O)c1F	FGFR3 enzyme	FGFR4/FGFR3	>5
CCc1cc(CN2C(=O)N(c3c(F)c(OC)cc(OC)c3F)Cc3cnc(-c4cn(C)nc4C)cc32)no1	FGFR3 enzyme	FGFR4/FGFR3	>10
COc1cc(OC)c(F)c(N2Cc3cnc(-c4cn(C)nc4C)cc3N(Cc3csc(C)n3)C2=O)c1F	FGFR3 enzyme	FGFR4/FGFR3	>10
COc1cc(OC)c(F)c(N2Cc3cnc(-c4cnn(CCCN5CCOCC5)c4)cc3C3(CC3)C2=O)c1F	FGFR3 enzyme	FGFR4/FGFR3	>5
COc1cc(OC)c(F)c(N2Cc3cnc(-c4cn(C5CCS(=O)(=O)C5)nc4C)cc3C3(CC3)C2=O)c1F (stereo not drawn)	FGFR3 enzyme	FGFR4/FGFR3	>1
COc1cc(OC)c(F)c(N2Cc3cnc(-c4cn(C)nc4C)cc3N(Cc3ccc(F)c(F)c3)C2=O)c1F	FGFR3 enzyme	FGFR4/FGFR3	>10
COc1cc(OC)c(F)c(N2Cc3cnc(-c4cn(C)nc4C)cc3N(Cc3cnn(CC#N)c3)C2=O)c1F	FGFR3 enzyme	FGFR4/FGFR3	>5
CCn1cc(N2C(=O)N(c3c(F)c(OC)cc(OC)c3F)Cc3cnc(-c4cn(C)nc4C)cc32)cn1	FGFR3 enzyme	FGFR4/FGFR3	>10
COc1cc(OC)c(F)c(N2Cc3cnc(-c4cnn(CCC5CCN(S(C)(=O)=O)CC5)c4)cc3C3(CC3)C2=O)c1F	FGFR3 enzyme	FGFR4/FGFR3	>3
COc1cc(OC)c(F)c(N2Cc3cnc(-c4cn(C)nc4C)cc3N(c3ccn(C)n3)C2=O)c1F	FGFR3 enzyme	FGFR4/FGFR3	>5
CCNC(=O)c1ccc(-c2cc3c(cn2)CN(c2c(F)c(OC)cc(OC)c2F)C(=O)N3CC)cn1	FGFR3 enzyme	FGFR4/FGFR3	>5
COc1cc(OC)c(F)c(N2Cc3cnc(-c4cn(CCC#N)nc4C)cc3C3(CC3)C2=O)c1F	FGFR3 enzyme	FGFR4/FGFR3	>1
COc1cc(OC)c(F)c(N2Cc3cnc(-c4cn(C)nc4C)cc3N(Cc3ccncc3)C2=O)c1F	FGFR3 enzyme	FGFR4/FGFR3	>5
COc1cc(OC)c(F)c(N2Cc3cnc(-c4cn(C)nc4C)cc3N(C3(C#N)CC3)C2=O)c1F	FGFR3 enzyme	FGFR4/FGFR3	>5
COc1cc(OC)c(F)c(N2Cc3cnc(-c4cn(C)nc4C)cc3N(C3CCN(C(C)=O)CC3)C2=O)c1F	FGFR3 enzyme	FGFR4/FGFR3	>5
